Overview of reported IC50 or EC50 (agonist or antagonist mode not specified) across a group of compounds:
- System Under Test: glucocorticoid receptor (Homo sapiens, UniProt P04150)
- Construct: expressed in transfected cells
- Sequence (P04150 524-758 limits assumed): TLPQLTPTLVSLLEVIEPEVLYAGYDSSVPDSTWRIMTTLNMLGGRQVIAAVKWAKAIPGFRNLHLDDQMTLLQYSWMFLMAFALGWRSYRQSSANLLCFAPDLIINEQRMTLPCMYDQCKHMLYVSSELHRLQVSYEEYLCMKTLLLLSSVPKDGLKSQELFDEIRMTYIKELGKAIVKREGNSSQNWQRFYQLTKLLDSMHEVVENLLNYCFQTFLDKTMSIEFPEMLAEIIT
- Experiment Notes: Agonistic mode of action on the glucocorticoid receptor (CHO-Gal4/GR luciferase reporter cell line)
- Format: cell-based
- Settings: range class observed in the agonistic assay or the antagonistic assay (CHO-Gal4/GR reporter cells); table does not say which mode applies per example

Cc1nnc2n1-c1c(cc(F)c(-c3ccc(F)c4[nH]ccc34)c1C(F)(F)F)NC2(C)C [Example 505]
100 to 1000 nM

Prompt: I am curious: what IC50 or EC50 (agonist or antagonist mode not specified) value has been reported for COc1c(-c2cccc3[nH]ccc23)c(F)cc2c1-n1c(C)nnc1C(C)(C)N2 [Example 286] ?
Completion: 100 to 1000 nM

Prompt: Record request: IC50 or EC50 (agonist or antagonist mode not specified) value, item CCc1nnc2n1-c1c(cc(F)c(-c3cccc4c3cnn4C3CC3)c1C)NC2(C)C [Example 242]
Completion: 1000 to 15000 nM

Prompt: For the compound shown here, Cc1nnc2n1-c1c(cc(F)c(-c3cccc4c3ccn4C)c1C(F)F)NC2(C)C [Example 481] , give the reported IC50 or EC50 (agonist or antagonist mode not specified).
Completion: 100 to 1000 nM

Prompt: Name the recorded IC50 or EC50 (agonist or antagonist mode not specified) for Cc1c(-c2cccc3cc[nH]c23)c(F)cc2c1-n1c(C)nnc1C(C)(C)N2 [Example 25] .
Completion: 100 to 1000 nM

Prompt: Can you look up the measured IC50 or EC50 (agonist or antagonist mode not specified) of Cc1c(-c2cc(F)cc3c2ccn3S(C)(=O)=O)c(Cl)cc2c1-n1c(C)nnc1C(C)(C)N2 [Example 333] for me?
Completion: < 100 nM

Prompt: If you can, please state the reported IC50 or EC50 (agonist or antagonist mode not specified) value of CCn1cc2c(-c3c(F)cc4c(c3F)-n3c(C)nnc3C(C)(C)N4)cccc2n1 [Example 237] .
Completion: 1000 to 15000 nM

Prompt: Bench note: what IC50 or EC50 (agonist or antagonist mode not specified) did COCCn1ccc2c(-c3c(Cl)cc4c(c3F)-n3c(C)nnc3C(C)(C)N4)cc(F)cc21 [Example 404] show?
Completion: 100 to 1000 nM

Prompt: Suppose we examine the compound CCc1nnc2n1-c1c(cc(F)c(-c3cc(C)cc4c(C#N)c[nH]c34)c1F)NC2(C)C [Example 17] ; what IC50 or EC50 (agonist or antagonist mode not specified) value has been reported?
Completion: 100 to 1000 nM

Prompt: Looking for the measured IC50 or EC50 (agonist or antagonist mode not specified) of COCCn1ncc2c(-c3c(OC(F)(F)F)cc4c(c3C)-n3c(C)nnc3C(C)(C)N4)cc(F)cc21 [Example 480] , can you help?
Completion: 100 to 1000 nM

Reference source for all entries: patent US12110293B2
